System: HCT-15 colon
Assay: NCI-60 one-dose screen, 48 h (100 = growth as untreated, 0 = no growth, -100 = all killed)
Conditions: 10 µM unless noted
Description: Growth inhibition of the HCT-15 human tumor cell line is measured as a screen for anti-cancer activity. Cells are grown in 96 well plates and exposed to the test compound for 48 hours. Compounds are tested at a single concentration, which is 10^-5 M for most compounds. The reported endpoint is percent growth (GI% or GIPRCNT), where numbers from 0 - 100% represent growth inhibition, and numbers from -100% - 0 represent cell death. For example, a value of 40 represents 60% growth inhibition. […]
This is part of a sample that, as a whole, favours compounds with a hit. Of some 83,000 tested, about 20% had one in any assay.
// values below are reported growth
OBSERVATION TYPE: growth (%)

compound="CC1(C)CC[C@]2(C(=O)Nc3ccccc3)CC[C@]3(C)C(=CCC4[C@@]5(C)C[C@@H](O)[C@H](O)[C@@](C)(CO)C5CC[C@]43C)C2C1 (stereo partly drawn)" observation_type=growth value_observed=42.5
compound=CC(C)CSc1nc(NCCc2c[nH]c3ccccc23)c(C#N)c(-c2ccccc2)n1 observation_type=growth value_observed=22.6
compound=COC(=O)C[C@](O)(CCCC(C)(C)O)C(=O)O[C@H]1C(OC)=C[C@@]23CCCN2CCc2cc4c(cc2[C@@H]13)OCO4 observation_type=growth value_observed=0.83
compound="CCCS(=O)(=O)N1CCCC(C(=O)Nc2nc3ccc(NC(=O)c4ccc(F)c(OC)c4F)cc3s2)C1 (stereo not drawn)" observation_type=growth value_observed=37.1
compound=O=C(/C=C/c1cccc(OCc2ccccc2)c1)c1nc2ccccc2[nH]1 observation_type=growth value_observed=-75.5
compound=CC(C)c1ccc2c(N)c(C(=O)Nc3ccc(C(F)(F)F)cn3)sc2n1 observation_type=growth value_observed=58.7
compound=Cc1c(C(=O)NNC(=O)Nc2ccc(Cl)cc2)nnn1-c1ccc(Br)cc1 observation_type=growth value_observed=97
compound=COc1ccc2[nH]cc(-c3nnc(N)nc3-c3c[nH]c4ncc(Br)cc34)c2c1 observation_type=growth value_observed=90.8
compound=COc1ccc(/C=C/c2nc3ccccc3c(=O)n2CC(=O)Nc2ccc(OC)cc2)cc1 observation_type=growth value_observed=88.4
compound="CC12CC[C@@H]3[C@]4(C)COC(c5cn[nH]c5-c5cccc(Br)c5)O[C@@H]4CC[C@@]3(C)[C@@H]1CC(C1=CCOC1=O)O2 (stereo partly drawn)" observation_type=growth value_observed=23.3
compound=CC(=O)Nc1ccc(-n2cnc3ccc(-c4ccc(O)cc4)cc32)cc1 observation_type=growth value_observed=52
compound=C/C(=N\N=C1/C(=O)Nc2ccc(Cl)cc21)c1ccc2c(c1)Nc1ccccc1S2 observation_type=growth value_observed=0.895
compound="C=C1CCC2C3(C)COC(c4cc(F)cc(F)c4)OC3CCC2(C)C1CC(O)C1=CCOC1=O (stereo not drawn)" observation_type=growth value_observed=7.8
compound="CC(=O)Oc1ccc(/C=C/C(=O)N[C@@H](Cc2ccccc2)C(O)C(=O)NCc2ccccc2)cc1OC(C)=O (stereo partly drawn)" observation_type=growth value_observed=78.1
compound=COc1cc(OC)cc(C(=O)Nc2cccc(-c3cn(-c4ccc(S(N)(=O)=O)cc4)nn3)c2)c1 observation_type=growth value_observed=92.2
compound=N#Cc1c(-c2cccnc2)cc(-c2ccc3ccccc3c2)[nH]c1=O observation_type=growth value_observed=80.7
compound=CCN(CC)c1ccc(/C=N/Nc2nc(-c3ccc(C)cc3)cs2)c(O)c1 observation_type=growth value_observed=67.2
compound=Clc1cccc(Cl)c1/C=C/c1cc(/C=C/c2ccc(Br)cc2)c2ccccc2n1 observation_type=growth value_observed=101
